- Experimental System: T1, hnRNPLL RRM1 WT (Mus musculus, UniProt Q921F4 109-213)
- T1 sequence: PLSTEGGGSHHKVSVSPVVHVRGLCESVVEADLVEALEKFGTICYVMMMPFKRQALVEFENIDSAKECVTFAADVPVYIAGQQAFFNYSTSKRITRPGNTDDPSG
- Procedure Details: ITC
Test Readout: Kd (µM)
Unit µM implied. Number only.

Kd reported for this binder CCUUACCUGCACGCA (ssRNA) [Ptprc exon 6 ARS 15-mer WT] : 1.9
